Assay: Mycobacterium tuberculosis growth inhibition, primary screen (AID 1259343)
Details: at 10 µM, active compounds read high
The campaign covered roughly 6,200 compounds. About 2,900 (47%) were called active. The set was probably picked from earlier hits. The list shows a part of the results.
Each record's class is read off its inhibition using these ranges: 0: < 50%; 1: ≥ 50% and < 70%; 2: ≥ 70%

compound=S=c1sc2c(Cl)ncnc2n1-c1ccccc1 category=1
compound=N#Cc1c(F)cccc1Oc1ccc(C(=O)O)cc1 category=0
compound=COc1ccc(Oc2ccc(C(=O)NCCN3CCNC3=O)cc2)cc1 category=2
compound=O=C(c1cc2cc(Cl)ccc2o1)N1CCN(S(=O)(=O)c2ccccc2Cl)CC1 category=0
compound=CCc1nc2ccc(C(=O)NCCOc3ccc(OC)cc3)cn2c1N(C=O)Cc1ccc(OC)cc1 category=0
compound=CC(C)c1ccc(/C=N\Nc2ncnc3nc[nH]c23)cc1 category=1
compound=CCNC(=O)NC(=O)CSc1nnc(Nc2ccc(C(C)C)cc2)s1 category=2
compound=COc1ccc(Oc2ccc(C(=O)NCCc3cnc[nH]3)cc2)cc1 category=1
compound="CCCC(C)NC(=O)CSc1nnc(Nc2ccc(CC)cc2)s1 (stereo unspecified)" category=2
compound=CCNC(=O)NC(=O)CSc1nnc(Nc2ccc(CC)cc2)s1 category=1
compound=CCOCCCNC(=O)NC(=O)CSc1nnc(Nc2ccc(C)cc2)s1 category=2
